Cited source: paper PMC9811466

Entries and their IC50
- MEASURED_TARGET: hLAT1/4F2hc (Homo sapiens, UniProt Q01650)
- Construct: Invitrogen (host cells)
- Sequence (Q01650 whole entry): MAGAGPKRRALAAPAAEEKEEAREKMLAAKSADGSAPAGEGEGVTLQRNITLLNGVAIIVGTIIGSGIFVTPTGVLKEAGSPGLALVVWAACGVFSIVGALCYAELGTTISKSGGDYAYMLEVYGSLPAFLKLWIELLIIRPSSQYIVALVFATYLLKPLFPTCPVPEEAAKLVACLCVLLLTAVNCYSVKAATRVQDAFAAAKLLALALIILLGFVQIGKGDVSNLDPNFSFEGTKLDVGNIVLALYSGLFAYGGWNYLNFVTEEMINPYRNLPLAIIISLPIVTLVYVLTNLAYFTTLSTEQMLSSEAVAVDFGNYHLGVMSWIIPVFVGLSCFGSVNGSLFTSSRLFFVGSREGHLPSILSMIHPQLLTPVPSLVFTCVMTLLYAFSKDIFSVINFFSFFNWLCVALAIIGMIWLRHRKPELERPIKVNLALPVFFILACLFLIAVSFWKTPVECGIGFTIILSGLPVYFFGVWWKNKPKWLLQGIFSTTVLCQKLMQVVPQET
- Sequence (P08195 102-630 partner): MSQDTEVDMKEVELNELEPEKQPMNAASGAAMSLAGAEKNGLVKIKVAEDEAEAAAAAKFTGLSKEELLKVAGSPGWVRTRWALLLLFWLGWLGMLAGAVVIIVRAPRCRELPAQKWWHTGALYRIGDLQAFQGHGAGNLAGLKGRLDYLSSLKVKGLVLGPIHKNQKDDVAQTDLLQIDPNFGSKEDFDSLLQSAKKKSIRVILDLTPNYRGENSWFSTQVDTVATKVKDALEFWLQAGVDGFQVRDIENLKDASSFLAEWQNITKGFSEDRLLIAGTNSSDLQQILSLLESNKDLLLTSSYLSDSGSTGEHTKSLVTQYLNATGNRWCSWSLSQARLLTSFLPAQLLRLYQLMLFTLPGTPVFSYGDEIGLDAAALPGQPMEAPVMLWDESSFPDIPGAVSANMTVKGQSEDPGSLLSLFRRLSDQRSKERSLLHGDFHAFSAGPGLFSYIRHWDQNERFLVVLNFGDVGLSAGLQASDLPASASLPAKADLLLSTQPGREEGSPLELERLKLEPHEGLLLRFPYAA
- ASSAY_REMARKS: cis-inhibition of [14C]-L-leucine uptake in HEK-hLAT1 cells
- Assay type: cell-based
- CONDITIONS_USED: HEK-hLAT1 cells; compounds 1-12; read-out: IC50 of [14C]-L-leucine uptake
MEASUREMENT_NAME: IC50

CCCC(CCC)C(=O)Nc1cccc(C[C@H](N)C(=O)O)c1 [Compound 4] ... > 100 µM
CC(C(=O)Nc1cccc(C[C@H](N)C(=O)O)c1)c1cccc(C(=O)c2ccccc2)c1 (some centres unmarked) [Compound 5] ... 11 µM
COc1ccc2cc(C(C)C(=O)Nc3cccc(C[C@H](N)C(=O)O)c3)ccc2c1 (some centres unmarked) [Compound 12] ... > 100 µM
COc1cc(/C=C/C(=O)Nc2cccc(C[C@H](N)C(=O)O)c2)ccc1O [Compound 9] ... > 100 µM
CCCN(CCC)S(=O)(=O)c1ccc(C(=O)Nc2cccc(C[C@H](N)C(=O)O)c2)cc1 [Compound 10] ... > 100 µM
CC(C)Cc1ccc(C(C)C(=O)Nc2cccc(C[C@H](N)C(=O)O)c2)cc1 (some centres unmarked) [Compound 7] ... 57 µM
CC(C(=O)Nc1cccc(C[C@H](N)C(=O)O)c1)c1ccc(-c2ccccc2)c(F)c1 (some centres unmarked) [Compound 11] ... > 100 µM
N[C@@H](Cc1cccc(NC(=O)c2ccccc2O)c1)C(=O)O [Compound 1] ... > 100 µM
N[C@@H](Cc1cccc(C(=O)NCCc2ccc(O)c(O)c2)c1)C(=O)O [Compound 3] ... > 100 µM
CC(C(=O)Oc1cccc(C[C@H](N)C(=O)O)c1)c1cccc(C(=O)c2ccccc2)c1 (some centres unmarked) [Compound 8] ... > 100 µM
CNC(=O)COc1ccc(-c2c(C#N)c(NC(=O)c3cccc(C[C@H](N)C(=O)O)c3)n3c(nc4ccccc43)c2C#N)cc1 [Compound 6] ... > 100 µM
